System: Trichophyton rubrum
assay-notes: Antifungal activity in vitro, resazurin growth inhibition: Trichophyton rubrum (B68183)
Type: cell-based
quantity: Inf. C: Trichophyton rubrum B68183, pIC50
Field format: numeric only.

Entry `CCn1cc(C2=NCc3cc(Cl)cc(Cl)c3-n3cccc32)cn1` : reported Inf. C: Trichophyton rubrum B68183, pIC50 = ?
5.22

Fill in: Inf. C: Trichophyton rubrum B68183, pIC50 of `Cc1ccc2cc(C3=NCc4c(F)cccc4-n4cccc43)ccc2n1` is ___
5.86

Can you share its Inf. C: Trichophyton rubrum B68183, pIC50? I mean this molecule: `CCc1ccc(C2=NCc3c(Cl)cccc3-n3cccc32)cn1`
6.31

Entry Cc1ncc(C2NCc3c(Cl)cccc3-n3cccc32)cn1.Cl (racemic) has what Inf. C: Trichophyton rubrum B68183, pIC50?
4.19

###

Inf. C: Trichophyton rubrum B68183, pIC50 listing for selected compounds.
Test system: Trichophyton rubrum
assay-notes: Antifungal activity in vitro, resazurin growth inhibition: Trichophyton rubrum (B68183)
Type: cell-based
Returns: the value as a bare number; no unit string appended.

Here are 6 compounds together with their reported answers.
compound: Clc1cccc2c1CN=C(c1ccc3snnc3c1)c1cccn1-2 [Compound 195]
value-reported: 6.34
//
compound: Cc1cccc2c1CN=C(c1cc3cccc(C)c3o1)c1cccn1-2 [Compound 131]
value-reported: 7.10
//
compound: Cl.c1ccc2c(c1)CNC(c1cc3ccccc3s1)c1cccn1-2 (racemic) [Compound 52]
value-reported: 6.13
//
compound: Clc1cccc2c1CN=C(c1cc3ccccc3s1)c1cccn1-2 [Compound 165]
value-reported: 6.70
//
compound: Clc1cccc2c1CN=C(c1cnc3occc3c1)c1cccn1-2 [Compound 161]
value-reported: 6.12
//
compound: COc1cccc2cc(C3=NCc4c(Cl)cc(Cl)cc4-n4cccc43)oc12 [Compound 145]
value-reported: 5.11

For the compound Cc1cccc2c1CN=C(c1cc3cc(Cl)ccc3o1)c1cccn1-2 [Compound 122] , what Inf. C: Trichophyton rubrum B68183, pIC50 is on record?
6.86

Entry under review: Cl.Fc1ccc2oc(C3NCc4c(Cl)cc(Cl)cc4-n4cccc43)cc2c1 (racemic) [Compound 49] . Reported Inf. C: Trichophyton rubrum B68183, pIC50?
5.28

Reported Inf. C: Trichophyton rubrum B68183, pIC50 for Cl.Clc1cc2oc(C3NCc4c(Cl)cccc4-n4cccc43)cc2cn1 (racemic) [Compound 51] : what is it?
5.63

###

Tested on: Sporothrix schenkii
assay-notes: Antifungal activity in vitro, resazurin growth inhibition: Sporothrix schenkii (B62482)
Type: cell-based
The entries below come with measured Inf. A: Sporothrix schenkii B62482, pIC50 values attached.
Note: the reply should be a number with no unit written.

compound: Br.Clc1cccc2c1CNC(c1ccncc1)c1cccn1-2 (racemic)
study-target: Sporothrix schenkii
value-reported: 4.70

Entry `Clc1cccc2c1CN=C(c1cnc3occc3c1)c1cccn1-2` : reported Inf. A: Sporothrix schenkii B62482, pIC50 = ?
5.02

// Inf. A: Sporothrix schenkii B62482, pIC50 lookup, key: `Clc1cccc2c1-n1cccc1C(c1ccc3scc(Cl)c3c1)=NC2`
4.41

What does the record list as Inf. A: Sporothrix schenkii B62482, pIC50 for `Fc1cc(F)c2c(c1)-n1cccc1C(c1cnc(Cl)c(Cl)c1)=NC2` ?
5.65

// lookup Inf. A: Sporothrix schenkii B62482, pIC50 for `c1ccc2c(c1)CN=C(c1cc3ccccc3s1)c1cccn1-2`
5.59
